Target: human acetyl-CoA carboxylase 2 (ACC2) (Homo sapiens)
Construct: The cDNA encoding amino acids 144 to 2458 of human acetyl-CoA carboxylase 2; made in house; host or cells: Sf9 insect cells (baculovirus, pFastBac1)
Assay: Acetyl-CoA carboxylase enzyme assay (malonyl-CoA formation by LC/MS/MS)
Format: biochemical
Settings: recombinant human ACC2 (aa 144-2458); read-out: IC50 ACC2

COMPOUND	IC50
C[C@H]1CCCCN1C(=O)[C@H]1CC[C@H](NS(=O)(=O)c2ccc3c(C#N)c(C4CC4)n(C)c3c2)CC1	95 nM
Cn1c(-c2ccccc2)cc2cc(S(=O)(=O)N[C@H]3CC[C@H](C(=O)N[C@H](CC(=O)OC(C)(C)C)c4ccccc4)CC3)ccc21	75 nM
CCN(C)C(=O)[C@H]1CC[C@H](NS(=O)(=O)c2ccc3c(Cl)c(-c4ccc(CCC(=O)O)cc4)n(C)c3c2)CC1	15 nM
O=C([C@H]1CC[C@H](NS(=O)(=O)c2ccc3[nH]c(-c4ccccc4)nc3c2)CC1)N1Cc2ccccc2C1	560 nM
Cc1cc(CO)ccc1-c1cc2ccc(S(=O)(=O)N[C@H]3CC[C@H](C(=O)N[C@H](C)c4ccc(F)cc4)CC3)cc2n1C	20 nM
Cc1ccccc1-c1cc2ccc(S(=O)(=O)N[C@H]3CC[C@H](C(=O)N4CCOC[C@@H]4c4ccccc4)CC3)cc2[nH]1	325 nM
Cn1ccc2cc(S(=O)(=O)N[C@H]3CC[C@H](C(=O)N[C@H]4CCCCNC4=O)CC3)ccc21	639 nM
O=C([C@H]1CC[C@H](NS(=O)(=O)c2ccc3cc(-c4ccccc4)[nH]c3c2)CC1)N1CCCCC1	75 nM
O=C(NCCc1ccccc1)[C@H]1CC[C@H](NS(=O)(=O)c2ccc3[nH]c(-c4ccccc4)nc3c2)CC1	408 nM
Cc1ccc(-c2nc3ccc(S(=O)(=O)Nc4ccc(C(=O)OC(C)C)cc4)cc3[nH]2)cc1	1740 nM
Cn1c(C2CC2)c(C#N)c2ccc(S(=O)(=O)N[C@H]3CC[C@H](C(=O)N4CCCC4C(C)(C)C)CC3)cc21 (some centres unmarked)	10 nM
Cc1nc2ccc(S(=O)(=O)N[C@H]3CC[C@H](C(=O)N[C@H](C)c4ccc(F)cc4)CC3)cc2s1	242 nM
CC1CN(C(=O)[C@H]2CC[C@H](NS(=O)(=O)c3ccc4[nH]c(-c5ccccc5)nc4c3)CC2)CC(C)O1 (some centres unmarked)	58 nM
Cc1ccccc1-c1cc2ccc(S(=O)(=O)N[C@H]3CC[C@H](C(=O)N4CCN[C@@H](C(F)(F)F)C4)CC3)cc2[nH]1	170 nM

* * *

Molecular target: human acetyl-CoA carboxylase 2 (ACC2) (Homo sapiens, UniProt O00763)
Construct: The cDNA encoding amino acids 144 to 2458 of human acetyl-CoA carboxylase 2; made in house; host or cells: Sf9 insect cells (baculovirus, pFastBac1)
Sequence (O00763 144-2458): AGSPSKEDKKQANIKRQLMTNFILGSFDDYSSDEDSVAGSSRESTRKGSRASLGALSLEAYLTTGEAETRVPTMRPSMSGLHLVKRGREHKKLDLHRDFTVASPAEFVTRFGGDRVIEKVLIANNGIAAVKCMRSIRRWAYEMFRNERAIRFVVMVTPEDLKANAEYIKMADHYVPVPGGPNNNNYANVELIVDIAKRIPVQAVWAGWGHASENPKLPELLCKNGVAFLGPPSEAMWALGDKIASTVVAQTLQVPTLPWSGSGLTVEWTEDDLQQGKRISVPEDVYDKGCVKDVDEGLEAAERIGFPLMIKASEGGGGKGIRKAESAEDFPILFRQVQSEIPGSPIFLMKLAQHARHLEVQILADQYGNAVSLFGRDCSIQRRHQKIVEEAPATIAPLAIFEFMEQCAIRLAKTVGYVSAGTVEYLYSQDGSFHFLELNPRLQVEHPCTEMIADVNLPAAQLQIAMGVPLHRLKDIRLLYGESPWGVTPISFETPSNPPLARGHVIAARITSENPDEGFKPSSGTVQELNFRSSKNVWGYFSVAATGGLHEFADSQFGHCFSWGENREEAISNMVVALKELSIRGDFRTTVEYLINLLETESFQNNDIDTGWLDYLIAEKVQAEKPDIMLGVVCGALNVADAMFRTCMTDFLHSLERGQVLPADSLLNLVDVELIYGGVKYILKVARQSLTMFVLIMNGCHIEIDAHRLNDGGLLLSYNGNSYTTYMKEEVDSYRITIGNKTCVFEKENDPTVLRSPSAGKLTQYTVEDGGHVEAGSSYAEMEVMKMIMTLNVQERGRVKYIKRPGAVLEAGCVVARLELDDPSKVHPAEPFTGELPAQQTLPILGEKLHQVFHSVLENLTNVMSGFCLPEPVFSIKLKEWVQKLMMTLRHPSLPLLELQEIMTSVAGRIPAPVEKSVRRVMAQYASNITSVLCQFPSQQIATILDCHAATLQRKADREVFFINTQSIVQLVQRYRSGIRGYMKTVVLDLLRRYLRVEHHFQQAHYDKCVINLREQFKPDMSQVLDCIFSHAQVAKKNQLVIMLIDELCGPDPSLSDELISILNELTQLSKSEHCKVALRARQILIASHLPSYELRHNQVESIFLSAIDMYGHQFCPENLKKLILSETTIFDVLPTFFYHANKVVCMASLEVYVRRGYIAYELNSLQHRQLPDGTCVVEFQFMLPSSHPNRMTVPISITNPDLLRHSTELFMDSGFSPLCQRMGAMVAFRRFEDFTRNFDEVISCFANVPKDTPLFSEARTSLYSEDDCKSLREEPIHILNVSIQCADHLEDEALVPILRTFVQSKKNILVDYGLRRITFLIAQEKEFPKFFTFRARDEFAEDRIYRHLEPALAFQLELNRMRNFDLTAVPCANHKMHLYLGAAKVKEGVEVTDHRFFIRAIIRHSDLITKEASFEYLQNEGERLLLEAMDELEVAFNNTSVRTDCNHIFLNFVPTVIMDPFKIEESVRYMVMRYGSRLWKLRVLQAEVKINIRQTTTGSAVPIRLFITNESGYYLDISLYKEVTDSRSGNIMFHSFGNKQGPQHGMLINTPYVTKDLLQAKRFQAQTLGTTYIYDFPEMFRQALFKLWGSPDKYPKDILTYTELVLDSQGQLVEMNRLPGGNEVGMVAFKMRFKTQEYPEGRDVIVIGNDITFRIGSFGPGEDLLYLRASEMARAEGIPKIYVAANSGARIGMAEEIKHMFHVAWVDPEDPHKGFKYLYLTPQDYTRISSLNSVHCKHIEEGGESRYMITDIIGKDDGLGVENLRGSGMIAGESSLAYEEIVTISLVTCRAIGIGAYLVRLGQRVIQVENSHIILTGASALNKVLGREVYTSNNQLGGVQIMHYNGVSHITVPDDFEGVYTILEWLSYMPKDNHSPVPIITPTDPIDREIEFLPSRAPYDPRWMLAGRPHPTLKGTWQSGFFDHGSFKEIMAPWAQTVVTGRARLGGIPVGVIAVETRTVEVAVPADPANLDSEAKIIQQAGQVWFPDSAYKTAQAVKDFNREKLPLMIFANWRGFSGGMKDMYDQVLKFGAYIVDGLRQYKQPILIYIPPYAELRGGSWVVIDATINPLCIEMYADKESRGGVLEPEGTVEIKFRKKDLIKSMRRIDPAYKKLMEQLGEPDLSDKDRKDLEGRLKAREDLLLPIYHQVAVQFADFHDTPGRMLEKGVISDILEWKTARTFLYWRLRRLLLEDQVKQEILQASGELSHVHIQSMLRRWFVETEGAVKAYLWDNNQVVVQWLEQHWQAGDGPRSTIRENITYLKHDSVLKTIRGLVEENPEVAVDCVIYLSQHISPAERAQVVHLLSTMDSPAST
Experiment: Acetyl-CoA carboxylase enzyme assay (malonyl-CoA formation by LC/MS/MS)
Assay type: biochemical
Conditions: recombinant human ACC2 (aa 144-2458); read-out: IC50 ACC2
log10(IC50) reference
ENDPOINT LABEL: log10(IC50) (log10 of the value in nM)

COMPOUND	ENDPOINT LABEL	OBSERVED VALUE
C[C@@H](NC(=O)[C@H]1CC[C@H](NS(=O)(=O)c2cnc3c(c2)N(C)[C@@H]2CCCC[C@H]2N3C)CC1)c1ccc(F)cc1	log10(IC50)	1.20
O=C([C@H]1CC[C@H](NS(=O)(=O)c2ccc3c(c2)NCCC3)CC1)N1CCNCC1c1ccccc1 (stereo partly shown)	log10(IC50)	2.02
C[C@@H](NC(=O)[C@H]1CC[C@H](NS(=O)(=O)c2ccc3c(c2)CCC3)CC1)c1ccc(F)cc1	log10(IC50)	2.21
O=C(NC1CCCc2ccccc21)[C@H]1CC[C@H](NS(=O)(=O)c2ccc3[nH]c(-c4ccccc4)nc3c2)CC1 (stereo partly shown)	log10(IC50)	3.24
COC(=O)N1CCNc2ncc(S(=O)(=O)N[C@H]3CC[C@H](C(=O)N[C@H](C)c4ccc(F)cc4)CC3)cc21	log10(IC50)	1.60

* * *

Target: human acetyl-CoA carboxylase 2 (ACC2) (Homo sapiens)
Construct: The cDNA encoding amino acids 144 to 2458 of human acetyl-CoA carboxylase 2; made in house; host or cells: Sf9 insect cells (baculovirus, pFastBac1)
Experiment: Acetyl-CoA carboxylase enzyme assay (malonyl-CoA formation by LC/MS/MS)
Type: biochemical
Conditions: recombinant human ACC2 (aa 144-2458); read-out: IC50 ACC2
Excerpt: The cDNA encoding amino acids 144 to 2458 of human acetyl-CoA carboxylase 2 (ACC2, GenBank Accession #NM_001093) was cloned into the SalI and NotI sites of pFastBac1 (Invitrogen; Carlsbad, Calif.). The resulting plasmid was used to generate a recombinant ACC2 baculovirus that was amplified and titered according to the protocols in the Bac-to-Bac baculovirus expression system manual (Invitrogen). […]
pIC50: −log10 of the molar value.

COMPOUND	RESULT COMPARATOR	pIC50
Cn1c(-c2ccccc2)cc2cc(S(=O)(=O)N[C@H]3CC[C@H](C(=O)N[C@@H](c4ccccc4)C(C)(C)O)CC3)ccc21	>	8.00
CC(C)(C)OC(=O)N1CCN(C(=O)[C@H]2CC[C@H](NS(=O)(=O)c3cnc4ccccc4c3)CC2)[C@@H](c2ccccc2)C1	=	7.35
Cc1cccc(-c2nc3ccc(S(=O)(=O)Nc4ccc(C(=O)OC(C)C)cc4)cc3[nH]2)c1	=	5.78
Cn1c(C2CC2)cc2ccc(S(=O)(=O)N[C@H]3CC[C@H](C(=O)NC(C4CC4)C4CC4)CC3)cc21	=	6.20
O=C([C@H]1CC[C@H](NS(=O)(=O)c2ccc3cc(-c4ccccc4C(F)(F)F)[nH]c3c2)CC1)N1CCCC(C(F)(F)F)C1 (stereo partly drawn)	=	5.44
C[C@H]1COCCN1C(=O)[C@H]1CC[C@H](NS(=O)(=O)c2ccc3cc(-c4ccc(CCC(=O)O)cc4)n(C)c3c2)CC1	=	7.82
C[C@H]1CCCCN1C(=O)[C@H]1CC[C@H](NS(=O)(=O)c2ccc3cc(-c4ccccc4)n(C)c3c2)CC1	=	7.46
O=C(Nc1ccc2ncccc2c1)[C@H]1CC[C@H](NS(=O)(=O)c2ccc3[nH]c(-c4ccccc4)nc3c2)CC1	=	6.14
CC[C@@H]1CCc2cc(S(=O)(=O)N[C@H]3CC[C@H](C(=O)N[C@H](C)c4ccc(F)cc4)CC3)ccc2N1	=	6.54
C[C@H](NC(=O)[C@H]1CC[C@H](NS(=O)(=O)c2ccc3ccccc3c2)CC1)c1cccnc1	<	4.46
CC(C)OC(=O)c1ccc(NS(=O)(=O)c2ccc3nc(-c4ccccc4F)[nH]c3c2)cc1	=	5.89
Cc1ccnc2ncc(S(=O)(=O)N[C@H]3CC[C@H](C(=O)N[C@H](C)c4ccc(F)cc4)CC3)cc12	=	6.01
O=C(Nc1cccnc1)[C@H]1CC[C@H](NS(=O)(=O)c2ccc3[nH]c(-c4ccccc4)nc3c2)CC1	=	6.41
COc1ccc2cc(S(=O)(=O)N[C@H]3CC[C@H](C(=O)N[C@H](C)c4ccc(F)cc4)CC3)ccc2n1	=	7.37
CC(C)OC(=O)c1ccc(NS(=O)(=O)c2ccc3[nH]c(Nc4cccc(C(C)O)c4)nc3c2)cc1 (stereo not drawn)	=	6.92
Cn1c(-c2ccc(CCC(=O)O)cc2)cc2ccc(S(=O)(=O)N[C@H]3CC[C@H](C(=O)N4CCOC[C@@H]4C4CC4)CC3)cc21	>	8.00
Cn1c(-c2ccc(F)cc2)cc2ccc(S(=O)(=O)N[C@H]3CC[C@H](C(=O)N4CCNC(C(F)(F)F)C4)CC3)cc21 (stereo partly drawn)	=	7.22
CC(C)(C)c1nnc([C@H]2CC[C@H](NS(=O)(=O)c3ccc4[nH]c(Nc5ccc(N6CCOCC6)cc5)nc4c3)CC2)o1	=	6.86
Cc1cc(CO)ccc1-c1cc2ccc(S(=O)(=O)N[C@H]3CC[C@H](C(=O)N4CCNC(C(F)(F)F)C4)CC3)cc2[nH]1 (stereo partly drawn)	=	7.60
COCC[C@@H](NC(=O)[C@H]1CC[C@H](NS(=O)(=O)c2ccc3c(ccn3C)c2)CC1)c1ccccc1	=	6.96
Cn1c(C2CC2)cc2ccc(S(=O)(=O)N[C@H]3CC[C@H](C(=O)N4CCNC(C(F)(F)F)C4)CC3)cc21 (stereo partly drawn)	=	6.25
COCCc1ccc(-c2cc3ccc(S(=O)(=O)N[C@H]4CC[C@H](C(=O)N5CCOC[C@@H]5C(C)C)CC4)cc3[nH]2)cc1	>	8.00
C[C@@H](NC(=O)[C@H]1CC[C@H](NS(=O)(=O)c2ccc3c(c2)N(C)CCN3C)CC1)c1ccc(F)cc1	=	7.34
O=C([C@H]1CC[C@H](NS(=O)(=O)c2ccc3[nH]c(-c4ccccc4)nc3c2)CC1)N1CCOCC1	=	6.52
CC(C)OC(=O)C1(C)CCC(NS(=O)(=O)c2ccc3c(ccn3C)c2)CC1 (stereo not drawn)	=	6.96
COc1cccc(Nc2nc3cc(S(=O)(=O)Nc4ccc(C(=O)OC(C)C)cc4)ccc3[nH]2)c1	=	6.44
CC(C)COC(=O)N1CCC(C)(C)c2ccc(S(=O)(=O)N[C@H]3CC[C@H](C(=O)N[C@H](C)c4ccc(F)cc4)CC3)cc21	=	6.78
